Reference for the values: patent US10934274B2

Some compounds, each annotated with its measured pKd.
Target: Axl (Homo sapiens)
Sequence (P30530 26-894): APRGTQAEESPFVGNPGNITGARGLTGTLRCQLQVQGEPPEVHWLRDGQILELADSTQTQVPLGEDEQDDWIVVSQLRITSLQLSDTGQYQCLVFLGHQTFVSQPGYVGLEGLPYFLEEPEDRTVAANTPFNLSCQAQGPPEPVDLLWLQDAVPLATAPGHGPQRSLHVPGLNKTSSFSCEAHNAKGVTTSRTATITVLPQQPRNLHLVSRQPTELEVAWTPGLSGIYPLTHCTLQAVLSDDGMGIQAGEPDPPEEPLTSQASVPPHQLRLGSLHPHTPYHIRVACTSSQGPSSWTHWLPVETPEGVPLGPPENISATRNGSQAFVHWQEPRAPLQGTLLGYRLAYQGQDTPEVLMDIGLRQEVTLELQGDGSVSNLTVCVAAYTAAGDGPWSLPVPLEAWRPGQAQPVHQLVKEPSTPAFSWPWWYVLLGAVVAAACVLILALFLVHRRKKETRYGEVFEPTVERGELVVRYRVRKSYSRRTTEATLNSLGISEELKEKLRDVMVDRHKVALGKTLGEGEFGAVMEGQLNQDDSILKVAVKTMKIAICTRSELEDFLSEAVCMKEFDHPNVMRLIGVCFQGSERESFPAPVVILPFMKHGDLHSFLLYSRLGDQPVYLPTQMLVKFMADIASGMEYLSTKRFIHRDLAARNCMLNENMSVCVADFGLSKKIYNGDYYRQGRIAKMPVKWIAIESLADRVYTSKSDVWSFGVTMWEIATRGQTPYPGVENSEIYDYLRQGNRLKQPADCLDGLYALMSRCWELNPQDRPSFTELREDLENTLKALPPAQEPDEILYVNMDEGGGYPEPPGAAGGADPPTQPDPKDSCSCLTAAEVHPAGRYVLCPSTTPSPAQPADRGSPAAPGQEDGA
pKd: −log10 of the molar value.

CCOc1cn(-c2cnc(N)nc2)nc1C(=O)Nc1ccc(Oc2ccnc3cc(OC(C)C)c(OC)cc23)cc1F | > 7.00

Challenge: So what's the measured pKd for this one? CCOc1cnn(C2CCN(C)C2)c1C(=O)Nc1ccc(Oc2ccnc3cc(OC)c(OC)cc23)cn1 (centres unmarked)
Response given: 6.00 to 7.00

Challenge: Follow-up entry: `CCOc1cn(-c2ccc(C(F)(F)F)cc2C)nc1C(=O)Nc1ccc(Oc2ccnc3cc(OC)c(OC)cc23)cn1`
Response given: > 7.00

----------
Some compounds, each annotated with its measured Kd.
target: Axl (Homo sapiens, UniProt P30530)

CCOc1cn(-c2cccnc2)nc1C(=O)Nc1ccc(Oc2ccnc3cc(OC(C)C)c(OC)cc23)cn1 | < 100 nM
CCOc1cn(-c2cncnc2)nc1C(=O)Nc1ccc(Oc2ccnc3cc(OC)c(OC)cc23)cn1 | < 100 nM
CCOc1cn(-c2cncc(C(F)(F)F)n2)nc1C(=O)Nc1ccc(Oc2ccnc3cc(OC)c(OC)cc23)cn1 | 100 to 1000 nM

Challenge: Give the reported Kd for `CCOc1cn(-c2cnccc2C)nc1C(=O)Nc1ccc(Oc2ccnc3cc(OC)c(OC)cc23)nn1` (system: Axl (Homo sapiens, UniProt P30530)).
Response given: < 100 nM

Challenge: Follow-up entry: `CCOc1cn(-c2nccnc2F)nc1C(=O)Nc1ccc(Oc2ccnc3cc(OC)c(OC)cc23)cn1`
Response given: < 100 nM
